Target: ASK1 (Homo sapiens)
Construct: a 2.2 kb DNA fragment containing an ASK1 gene was recovered from the gel; FLAG (N); made in house; host or cells: Sf-21 insect cells (recombinant baculovirus, pFASTBAC1)
Sequence (Q99683 649-1374 limits assumed): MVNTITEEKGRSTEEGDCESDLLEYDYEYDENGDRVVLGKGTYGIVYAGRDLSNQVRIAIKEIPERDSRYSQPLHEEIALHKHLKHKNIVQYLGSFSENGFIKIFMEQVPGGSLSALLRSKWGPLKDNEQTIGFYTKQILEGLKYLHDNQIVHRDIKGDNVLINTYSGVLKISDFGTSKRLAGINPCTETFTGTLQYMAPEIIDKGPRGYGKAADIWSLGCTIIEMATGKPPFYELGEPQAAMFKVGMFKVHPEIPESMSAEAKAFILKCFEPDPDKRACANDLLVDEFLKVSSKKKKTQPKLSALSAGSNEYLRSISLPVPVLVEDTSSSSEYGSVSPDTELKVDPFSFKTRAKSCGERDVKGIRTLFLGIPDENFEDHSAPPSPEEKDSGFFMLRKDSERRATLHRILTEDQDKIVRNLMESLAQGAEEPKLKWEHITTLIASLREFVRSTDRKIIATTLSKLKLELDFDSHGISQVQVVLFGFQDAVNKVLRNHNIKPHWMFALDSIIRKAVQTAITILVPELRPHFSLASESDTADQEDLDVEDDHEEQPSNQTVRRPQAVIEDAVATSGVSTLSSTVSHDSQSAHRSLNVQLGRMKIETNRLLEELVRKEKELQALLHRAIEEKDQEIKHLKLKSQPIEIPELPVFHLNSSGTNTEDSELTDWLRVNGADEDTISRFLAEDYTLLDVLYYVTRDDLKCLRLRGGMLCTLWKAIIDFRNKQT
Assay: Scintillation assay for measuring the inhibitory effect against ASK1 (myelin basic protein substrate, [γ-32P]ATP)
Format: biochemical
Conditions: Table 1, assay of Example A and B, read-out: Enzyme Activity IC50
IC50 values, listed per item

Consider the following illustrative entries.
CC(C)(C)c1ccc(C(=O)Nc2nc3ccc(-c4cn[nH]c4)nc3s2)cc1 [Compound 9]    < 100 nM
CC(C)(CO)c1ccc(C(=O)Nc2nc3ccc(-c4ccc(O)nc4)nc3s2)cc1 [Compound 33]    < 100 nM
CC(C)(CO)c1ccc(C(=O)Nc2nc3ccc(-c4cn[nH]c4)nc3s2)cc1 [Compound 13]    < 100 nM

From here, focus on the item given below.
Record CC(C)(C)c1ccc(C(=O)Nc2nc3ccc(-n4ccnc4)nc3s2)cc1 [Compound 11] / ASK1 (Homo sapiens), IC50 recorded as 100 to 1000 nM
